- test.details: Apparent half life in NU008 nude mouse xenografted with human CRL2813 cells at 40 mg/kg, ip by LC-MS analysis
- Type: ADME, organism-based
- reported.conditions: in vivo, read-out: t1/2(app) (converted)

{"structure.string": "N#Cc1cc(NC(=O)N[C@H]2CC[C@H](Oc3ccc(C(F)(F)F)cc3)CC2)cc(C(F)(F)F)c1", "scale.unit": "h", "half-life": 40}

---

- measurement.target: UniProt:Q9BQI3
- Sequence (Q9BQI3 whole entry): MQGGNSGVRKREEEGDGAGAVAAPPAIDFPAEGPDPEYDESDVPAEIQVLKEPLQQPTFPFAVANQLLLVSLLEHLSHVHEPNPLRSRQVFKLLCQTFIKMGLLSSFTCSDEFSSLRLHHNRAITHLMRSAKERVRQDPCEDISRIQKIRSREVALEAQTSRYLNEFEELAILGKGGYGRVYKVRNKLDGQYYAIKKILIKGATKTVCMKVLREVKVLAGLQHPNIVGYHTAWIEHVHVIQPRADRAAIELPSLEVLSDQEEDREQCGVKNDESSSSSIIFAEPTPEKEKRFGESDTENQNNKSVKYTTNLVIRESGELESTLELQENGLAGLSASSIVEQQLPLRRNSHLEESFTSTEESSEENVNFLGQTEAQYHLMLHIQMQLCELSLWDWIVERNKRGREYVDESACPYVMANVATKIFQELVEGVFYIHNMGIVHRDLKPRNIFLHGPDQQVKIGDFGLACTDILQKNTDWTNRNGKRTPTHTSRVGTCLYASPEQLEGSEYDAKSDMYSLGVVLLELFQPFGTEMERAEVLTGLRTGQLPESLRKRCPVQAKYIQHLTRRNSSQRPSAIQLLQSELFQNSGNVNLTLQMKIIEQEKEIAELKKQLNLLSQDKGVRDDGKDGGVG
- test.details: Activation of HRI in human CRL2813 cells assessed as induction of CHOP mRNA level at 5 uM by real-time PCR relative to 18S RNA
- Format: cell-based
measured.parameter: fold change (FC)

{"structure.string": "N#Cc1cc(NC(=O)N[C@H]2CC[C@H](Oc3ccc(C(F)(F)F)cc3)CC2)cc(C(F)(F)F)c1", "measured.parameter": "fold change (FC)", "observed.measurement": 9.87}
{"structure.string": "O=C(Nc1cccc(OC(F)(F)F)c1)N[C@H]1CC[C@H](Oc2ccc(C(F)(F)F)cc2)CC1", "measured.parameter": "fold change (FC)", "observed.measurement": 11.9}
{"structure.string": "O=C(Nc1cc(C(F)(F)F)cc(C(F)(F)F)c1)N[C@H]1CC[C@H](Oc2ccc(C(F)(F)F)cc2)CC1", "measured.parameter": "fold change (FC)", "observed.measurement": 14.5}
{"structure.string": "N#Cc1ccc(NC(=O)N[C@H]2CC[C@H](Oc3ccc(C(F)(F)F)cc3)CC2)cc1C#N", "measured.parameter": "fold change (FC)", "observed.measurement": 6.21}
{"structure.string": "N#Cc1ccc(NC(=O)N[C@H]2CC[C@H](Oc3ccc(C(F)(F)F)cc3)CC2)cc1", "measured.parameter": "fold change (FC)", "observed.measurement": 12.8}
{"structure.string": "O=C(Nc1cccc(C(F)(F)F)c1)N[C@H]1CC[C@H](Oc2ccc(C(F)(F)F)cc2)CC1", "measured.parameter": "fold change (FC)", "observed.measurement": 4.72}

---

- test.details: Tmax in NU008 nude mouse xenografted with human CRL2813 cells at 40 mg/kg, ip by LC-MS analysis
- Type: ADME, organism-based
- reported.conditions: in vivo

{"structure.string": "N#Cc1cc(NC(=O)N[C@H]2CC[C@H](Oc3ccc(C(F)(F)F)cc3)CC2)cc(C(F)(F)F)c1", "Tmax": "6 to 24 h"}

---

We begin with a simple list: items and their reported Ratio.
- measurement.target: UniProtKB Q9Z2R9
- Sequence (Q9Z2R9 whole entry, the tested form may be a part): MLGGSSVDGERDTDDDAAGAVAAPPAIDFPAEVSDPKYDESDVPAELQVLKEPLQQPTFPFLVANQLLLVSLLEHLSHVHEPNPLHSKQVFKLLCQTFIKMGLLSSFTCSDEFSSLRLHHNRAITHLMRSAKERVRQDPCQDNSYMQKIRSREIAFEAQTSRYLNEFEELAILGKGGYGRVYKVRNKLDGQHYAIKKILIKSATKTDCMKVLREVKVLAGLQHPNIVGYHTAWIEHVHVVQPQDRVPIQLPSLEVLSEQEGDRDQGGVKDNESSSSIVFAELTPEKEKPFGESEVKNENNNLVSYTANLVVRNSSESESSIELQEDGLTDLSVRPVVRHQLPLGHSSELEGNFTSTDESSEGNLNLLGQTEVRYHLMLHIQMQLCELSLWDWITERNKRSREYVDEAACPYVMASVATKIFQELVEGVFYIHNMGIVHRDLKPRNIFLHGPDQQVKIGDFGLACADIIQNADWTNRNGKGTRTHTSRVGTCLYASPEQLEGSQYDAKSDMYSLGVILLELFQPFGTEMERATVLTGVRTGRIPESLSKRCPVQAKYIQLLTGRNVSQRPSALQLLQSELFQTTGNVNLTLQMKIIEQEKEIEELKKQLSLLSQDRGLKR
- test.details: Activation of HRI in mouse KLN cells transfected with 5'UTR of ATF-4 mRNA fused firefly luciferase mRNA and 5'UTR lacking uORF fused renila luciferase mRNA assessed as increase in eIF2alpha phosphorylation by measuring ratio of firefly luciferase to renila luciferase at 5 uM after 16 hrs
- Format: cell-based
measured.parameter: Ratio

{"structure.string": "N#Cc1ccc(O[C@H]2CC[C@H](NC(=O)Nc3cccc(C(F)(F)F)c3)CC2)cc1", "measurement.target": "UniProtKB Q9Z2R9", "observed.measurement": 3.23}
{"structure.string": "O=C(Nc1cccc(OC(F)(F)F)c1)N[C@H]1CC[C@H](Oc2ccc(OC(F)(F)F)cc2)CC1", "measurement.target": "UniProtKB Q9Z2R9", "observed.measurement": 10.7}
{"structure.string": "N#Cc1cc(C(F)(F)F)ccc1O[C@H]1CC[C@H](NC(=O)Nc2cccc(C(F)(F)F)c2)CC1", "measurement.target": "UniProtKB Q9Z2R9", "observed.measurement": 6.3}
{"structure.string": "NC(=O)c1cc(O[C@H]2CC[C@H](NC(=O)Nc3cccc(C(F)(F)F)c3)CC2)ccc1C(F)(F)F", "measurement.target": "UniProtKB Q9Z2R9", "observed.measurement": 1.12}
{"structure.string": "O=C(Nc1cccc(C(F)(F)F)c1)N[C@H]1CC[C@H](Oc2ccc(C(F)(F)F)cn2)CC1", "measurement.target": "UniProtKB Q9Z2R9", "observed.measurement": 6.11}
{"structure.string": "CC(=O)Nc1cc(C(F)(F)F)ccc1O[C@H]1CC[C@H](NC(=O)Nc2cccc(OC(F)(F)F)c2)CC1", "measurement.target": "UniProtKB Q9Z2R9", "observed.measurement": 4.31}
{"structure.string": "O=C(Nc1cccc(C(F)(F)F)c1)N[C@H]1CC[C@H](Oc2ccc(C(F)(F)F)cc2)CC1", "measurement.target": "UniProtKB Q9Z2R9", "observed.measurement": 10.2}
{"structure.string": "NC(=O)c1cc(C(F)(F)F)ccc1O[C@H]1CC[C@H](NC(=O)Nc2cccc(C(F)(F)F)c2)CC1", "measurement.target": "UniProtKB Q9Z2R9", "observed.measurement": 1.49}
{"structure.string": "O=C(Nc1ccc(Oc2ccc(C(F)(F)F)cc2)cc1)Nc1cccc(C(F)(F)F)c1", "measurement.target": "UniProtKB Q9Z2R9", "observed.measurement": 8.99}
{"structure.string": "N#Cc1ccc(O[C@H]2CC[C@H](NC(=O)Nc3cccc(C#N)c3)CC2)cc1", "measurement.target": "UniProtKB Q9Z2R9", "observed.measurement": 1.15}
{"structure.string": "CC(=O)Nc1cc(C(F)(F)F)ccc1O[C@H]1CC[C@H](NC(=O)Nc2cccc(C(F)(F)F)c2)CC1", "measurement.target": "UniProtKB Q9Z2R9", "observed.measurement": 3.9}
{"structure.string": "N#Cc1ccc(NC(=O)N[C@H]2CC[C@H](Oc3ccc(C#N)cc3)CC2)cc1", "measurement.target": "UniProtKB Q9Z2R9", "observed.measurement": 1.38}
{"structure.string": "O=C(Nc1ccc(Oc2ccc(C(F)(F)F)cc2)cc1)Nc1cccc(OC(F)(F)F)c1", "measurement.target": "UniProtKB Q9Z2R9", "observed.measurement": 6.73}
{"structure.string": "NC(=O)c1cc(C(F)(F)F)ccc1O[C@H]1CC[C@H](NC(=O)Nc2cccc(OC(F)(F)F)c2)CC1", "measurement.target": "UniProtKB Q9Z2R9", "observed.measurement": 5.13}
{"structure.string": "O=C(Nc1cc(C(F)(F)F)cc(C(F)(F)F)c1)N[C@H]1CC[C@H](Oc2ccc(C(F)(F)F)cc2)CC1", "measurement.target": "UniProtKB Q9Z2R9", "observed.measurement": 30.7}
{"structure.string": "N#Cc1cc(C#N)cc(NC(=O)N[C@H]2CC[C@H](Oc3ccc(C(F)(F)F)cc3)CC2)c1", "measurement.target": "UniProtKB Q9Z2R9", "observed.measurement": 2.36}
{"structure.string": "O=C(Nc1cccc(OC(F)(F)F)c1)N[C@H]1CC[C@H](Oc2ccc(C(F)(F)F)cc2)CC1", "measurement.target": "UniProtKB Q9Z2R9", "observed.measurement": 13.6}
{"structure.string": "N#Cc1cc(NC(=O)N[C@H]2CC[C@H](Oc3ccc(C(F)(F)F)cc3)CC2)cc(C(F)(F)F)c1", "measurement.target": "UniProtKB Q9Z2R9", "observed.measurement": 13.2}
{"structure.string": "O=C(Nc1cccc(C(F)(F)F)c1)N[C@H]1CC[C@H](Oc2ccc(OC(F)(F)F)cc2)CC1", "measurement.target": "UniProtKB Q9Z2R9", "observed.measurement": 10.1}
{"structure.string": "N#Cc1ccc(NC(=O)N[C@H]2CC[C@H](Oc3ccc(C(F)(F)F)cc3)CC2)cc1C#N", "measurement.target": "UniProtKB Q9Z2R9", "observed.measurement": 7.75}
{"structure.string": "NC(=O)c1cc(O[C@H]2CC[C@H](NC(=O)Nc3cccc(OC(F)(F)F)c3)CC2)ccc1C(F)(F)F", "measurement.target": "UniProtKB Q9Z2R9", "observed.measurement": 1.57}
{"structure.string": "N#Cc1ccc(NC(=O)N[C@H]2CC[C@H](Oc3ccc(C(F)(F)F)cc3)CC2)cc1", "measurement.target": "UniProtKB Q9Z2R9", "observed.measurement": 11.6}
{"structure.string": "N#Cc1cccc(NC(=O)N[C@H]2CC[C@H](Oc3ccc(C(F)(F)F)cc3)CC2)c1", "measurement.target": "UniProtKB Q9Z2R9", "observed.measurement": 7}
{"structure.string": "O=C(Nc1cccc(C(F)(F)F)c1)N[C@H]1CC[C@H](Oc2ccc(C(F)(F)F)cc2[N+](=O)[O-])CC1", "measurement.target": "UniProtKB Q9Z2R9", "observed.measurement": 3.28}
